MEASUREMENT_TARGET: LIM domain kinase 1 (Homo sapiens, UniProt P53667); further: in the data inactive means no Kd found up to 30 µM
Sequence (P53667 whole entry, the tested form may be a part): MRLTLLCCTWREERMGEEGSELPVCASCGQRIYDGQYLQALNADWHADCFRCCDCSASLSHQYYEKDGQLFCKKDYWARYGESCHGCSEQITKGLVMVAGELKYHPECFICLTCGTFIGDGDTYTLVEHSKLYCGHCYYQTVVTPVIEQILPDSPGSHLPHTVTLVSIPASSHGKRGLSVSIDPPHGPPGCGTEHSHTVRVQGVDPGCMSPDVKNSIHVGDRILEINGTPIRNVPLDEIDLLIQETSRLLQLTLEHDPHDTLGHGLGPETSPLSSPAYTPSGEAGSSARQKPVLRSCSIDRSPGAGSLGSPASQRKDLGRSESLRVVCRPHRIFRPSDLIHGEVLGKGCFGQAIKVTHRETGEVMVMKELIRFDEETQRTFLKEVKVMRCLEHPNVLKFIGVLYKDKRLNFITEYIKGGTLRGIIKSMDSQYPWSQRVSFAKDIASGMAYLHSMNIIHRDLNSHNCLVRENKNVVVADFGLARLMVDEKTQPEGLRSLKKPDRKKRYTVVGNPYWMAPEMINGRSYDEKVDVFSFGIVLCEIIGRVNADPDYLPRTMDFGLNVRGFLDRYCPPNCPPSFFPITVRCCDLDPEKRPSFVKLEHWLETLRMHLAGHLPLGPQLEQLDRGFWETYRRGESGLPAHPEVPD
The source made the active and inactive calls.
Respond using exactly one of the listed classes: active, inactive

Solved entries (count: 10):
{"columns": ["COMPOUND", "MEASUREMENT_TARGET", "CLASSIFICATION"],
 "data": [
  ["Cn1cc(-c2ccc(F)c(C(F)(F)F)c2)nc1C1CCN(c2ncnc3[nH]ncc23)CC1", "LIM domain kinase 1 (Homo sapiens, UniProt P53667)", "inactive"],
  ["C1=C/COCc2cc(ccc2OCCN2CCCC2)Nc2nccc(n2)-c2cccc(c2)COC/1", "LIM domain kinase 1 (Homo sapiens, UniProt P53667)", "inactive"],
  ["COc1ccc(-c2ccc3c(N4CCOC[C@@H]4C)nc(N4CCOC[C@@H]4C)nc3n2)cc1CO", "LIM domain kinase 1 (Homo sapiens, UniProt P53667)", "inactive"],
  ["COCCNCc1ccc(-c2cc3nccc(Oc4ccc(NC(=S)NC(=O)Cc5ccc(F)cc5)cc4F)c3s2)nc1", "LIM domain kinase 1 (Homo sapiens, UniProt P53667)", "inactive"],
  ["Cc1cc([C@@H](C)Nc2ccccc2C(=O)O)c2nc(N3CCOCC3)cc(=O)n2c1", "LIM domain kinase 1 (Homo sapiens, UniProt P53667)", "inactive"],
  ["O=C1NC(=O)/C(=C/c2ccc3nccc(-c4ccncc4)c3c2)S1", "LIM domain kinase 1 (Homo sapiens, UniProt P53667)", "inactive"],
  ["Cc1ccc(-n2nc(C(C)(C)C)cc2NC(=O)NCc2cc(F)ccc2Oc2ccc3c(cnn3CCO)c2)cc1", "LIM domain kinase 1 (Homo sapiens, UniProt P53667)", "inactive"],
  ["COc1cc(CCc2cc(NC(=O)c3ccc(N4C[C@@H](C)N[C@@H](C)C4)cc3)n[nH]2)cc(OC)c1", "LIM domain kinase 1 (Homo sapiens, UniProt P53667)", "inactive"],
  ["CNC(=O)CN1CCC(Oc2cc3c(Nc4cccc(Cl)c4F)ncnc3cc2OC)CC1", "LIM domain kinase 1 (Homo sapiens, UniProt P53667)", "inactive"],
  ["COC(=O)N[C@@H](C)CNc1nccc(-c2cn(C(C)C)nc2-c2cc(Cl)cc(NS(C)(=O)=O)c2F)n1", "LIM domain kinase 1 (Homo sapiens, UniProt P53667)", "active"]
]}

Identify the outcome logged in this assay for the compound shown: CN1CCC(CNc2ccc3ncc(-c4cccc(OC(F)(F)F)c4)n3n2)CC1
inactive

Identify the outcome logged in this assay for the compound shown: CC(C)Nc1cc(-c2c[nH]c(C(=O)N[C@H](CO)c3cccc(Cl)c3)c2)c(Cl)cn1
inactive

Identify the outcome logged in this assay for the compound shown: O=C(c1ccc(F)c(F)c1Nc1ccc(I)cc1F)N1CC(O)([C@@H]2CCCCN2)C1
inactive

Identify the outcome logged in this assay for the compound shown: C[C@@H](c1ccc2nccn2c1)n1nnc2ncc(-c3cnn(C)c3)nc21
inactive

Identify the outcome logged in this assay for the compound shown: COC(=O)[C@@]1(O)C[C@H]2O[C@]1(C)n1c3ccccc3c3c4c(c5c6ccccc6n2c5c31)C(=O)NC4 [K-252A]
inactive

Identify the outcome logged in this assay for the compound shown: CC[C@@H]1C(=O)N(C)c2cnc(Nc3ccc(C(=O)N[C@H]4CC[C@H](N5CCN(CC6CC6)CC5)CC4)cc3OC)nc2N1C(C)C
inactive

Reference for the values: ChEMBL document CHEMBL3991601
